System: Klebsiella pneumonia
Experiment: MIC against Gram-negative bacteria: Klebsiella pneumonia
Assay type: cell-based
Details: Klebsiella pneumonia; 96-well plate, 5×10^5 CFU/mL, 37° C., 10 h
measurement-name: MIC against K. pneumonia (µg/mL)

substance="PRT1268 (CAVNNGGCDRTCKDTSTGVHCSCPVGFTLQLDGKTC; listed as Homo sapiens)" value=12.5
substance="PRT1263 (DVDECAQGLDDCHADALCQNTPTSYKCSCKPGYQGEGRQCE; listed as Homo sapiens)" value=25
substance="PRT1200 (DIDECSEGIIECHNHSRCVNLPGWYHCECRSGFHDDGTY; listed as Homo sapiens)" value=12.5
substance="PRT1287 (EPCRKLYCLHGICQPNATPGPMCHCEAGWVGLHCD; listed as Homo sapiens)" value=50
substance="PRT1328 (LINVCLTKNGGCSEFAICNHTGQVERTCTCKPNYIGDGFT; listed as Homo sapiens)" value=12.5
substance="PRT1282 (SLDSCSSGPCENGGTCHAQEGEDAPFTCSCPTGFEGPTCG; listed as Homo sapiens)" value=50
substance="PRT1198 (EHDECGSGQHNCDENAICTNTVQGHSCTCKPGYVGNGTICR; listed as Homo sapiens)" value=50
substance="PRT1313 (VADLCQDGHGGCSEHANCSQVGTMVTCTCLPDYEGDGWSCR; listed as Homo sapiens)" value=25

* * *

Test system: Enterobacter cloacae
Experiment: MIC against Gram-negative bacteria: Enterobacter cloacae
Assay type: cell-based
Conditions: E. cloacae; 10 h cultivation at 37° C.
measurement-name: MIC (µg/mL)

substance="PRT944 (TSHPCFVSRPCLNGGTCHMLSRDTYECTCQVGFTGKECQ; listed as Homo sapiens)" measurement_name=MIC value=50
substance="PRT943 (PNVSCDIAASRRGVLVEHLCQHSGVCINAGNTHYCQCPLGYTGSYCE; listed as Homo sapiens)" measurement_name=MIC value=25
substance="PRT902 (DIDDCRPNPCHNGGSCTDGINTAFCDCLPGFRGTFCE; listed as Homo sapiens)" measurement_name=MIC value=50
substance="PRT935 (NIDECASNPCLNQGTCFDDISGYTCHCVLPYTGKNCQ; listed as Homo sapiens)" measurement_name=MIC value=25
substance="PRT916 (QADPCASNPCANGGQCLPFEASYICHCPPSFHGPTCR; listed as Homo sapiens)" measurement_name=MIC value=12.5
substance="PRT1003 (STDYCVSAPCFNGGTCVNRPGTFSCLCAMGFQGPRCE; listed as Homo sapiens)" measurement_name=MIC value=25
substance="PRT995 (ETNECASAPCLNHADCHDLLNGFQCICLPGFSGTRCE; listed as Homo sapiens)" measurement_name=MIC value=12.5
substance="PRT1025 (GHNYCSVNNGGCTHLCLATPGSRTCRCPDNTLGVDCI; listed as Homo sapiens)" measurement_name=MIC value=50

* * *

Tested on: Proteus vulgaris
Experiment: MIC against Gram-negative bacteria: Proteus vulgaris
Type: cell-based
Conditions: P. vulgaris; 10 h cultivation at 37° C.
measurement-name: MIC (µg/mL)

substance="PRT1025 (GHNYCSVNNGGCTHLCLATPGSRTCRCPDNTLGVDCI; listed as Homo sapiens)" unit_label=µg/mL value=25
substance="PRT926 (EINECQSNPCVNNGQCVDKVNRFQCLCPPGFTGPVCQ; listed as Homo sapiens)" unit_label=µg/mL value=25
substance="PRT1012 (APKGCGPPSPCLYNGSCSETTGLGGPGFRCSCPHSSPGPRCQ; listed as Homo sapiens)" unit_label=µg/mL value=25
substance="PRT927 (DIDDCSSTPCLNGAKCIDHPNGYECQCATGFTGVLCE; listed as Homo sapiens)" unit_label=µg/mL value=12.5

* * *

Measured MIC E. cloacae values are reported for all entries that follow.
Tested on: Enterobacter cloacae
Experiment: MIC against Gram-negative bacteria: Enterobacter cloacae
Type: cell-based
Conditions: 10 h cultivation at 37° C., 5×10^5 CFU/mL, two-fold serial dilution
measurement-name: MIC E. cloacae (µg/mL)

substance="PRT1084 (HLVKCAEKEKTFCVNGGECFMVKDLSNPSRYLCKCQPGFTGARCT; listed as Homo sapiens)" unit_label=µg/mL value=50
substance="PRT1102 (TIGSCGKNSCQHGGICHQDPIYPVCICPAGYAGRFCE; listed as Homo sapiens)" unit_label=µg/mL value=12.5
substance="PRT1044 (FGQDCAETCDCAPDARCFPANGACLCEHGFTGDRCT; listed as Homo sapiens)" unit_label=µg/mL value=50
substance="PRT1100 (DIDECASDPCVNGGLCQDLLNKFQCLCDVAFAGERCE; listed as Homo sapiens)" unit_label=µg/mL value=12.5
substance="PRT1127 (KDGPCVINGSPCQHGGTCVDDEGRASHASCLCPPGFSGNFCE; listed as Homo sapiens)" unit_label=µg/mL value=12.5
substance="PRT1158 (IQTSCESFPLRNNATCKKCEKDYPCSCISGFTEKNCE; listed as Homo sapiens)" unit_label=µg/mL value=12.5
substance="PRT1062 (LQGNCSRLGCQHHCVPTLDGPTCYCNSSFQLQADGKTCK; listed as Homo sapiens)" unit_label=µg/mL value=25
substance="PRT1081 (APNPCEANGGQGPCSHLCLINYNRTVSCACPHLMKLHKDNTTCY; listed as Homo sapiens)" unit_label=µg/mL value=50
substance="PRT1091 (DVNECSSNPCQNGGTCENLPGNYTCHCPFDNLSRTFYGGRDCS; listed as Homo sapiens)" unit_label=µg/mL value=50
substance="PRT1125 (LCDQCVTSPGCLHGLCGEPGQCICTDGWDGELCD; listed as Homo sapiens)" unit_label=µg/mL value=12.5
substance="PRT1119 (EVLECASAPCEHNASCLEGLGSFRCLCWPGYSGELCE; listed as Homo sapiens)" unit_label=µg/mL value=12.5
substance="PRT1109 (EPRGCATQPCHHGALCVPQGPDPTGFRCYCVPGFQGPRCE; listed as Homo sapiens)" unit_label=µg/mL value=12.5
substance="PRT1094 (GDNSCKSNPCHNGGVCHSRWDDFSCSCPALTSGKACE; listed as Homo sapiens)" unit_label=µg/mL value=25
substance="PRT1108 (DLNECNSNPCQSNGECVELSSEKQYGRITGLPSSFSYHEASGYVCICQPGFTGIHCE; listed as Homo sapiens)" unit_label=µg/mL value=25
substance="PRT1187 (NTNDCNPLPCYNGGICVDGVNWFRCECAPGFAGPDCR; listed as Homo sapiens)" unit_label=µg/mL value=25
substance="PRT1191 (AEHACTSNPCANGGSCHEVPSGFECHCPSGWSGPTCA; listed as Homo sapiens)" unit_label=µg/mL value=25
substance="PRT1086 (HFKPCRDKDLAYCLNDGECFVIETLTGSHKHCRCKEGYQGVRCD; listed as Homo sapiens)" unit_label=µg/mL value=12.5
substance="PRT1162 (DIDDCILNACEHNSTCKDLHLSYQCVCLSDWEGNFCE; listed as Homo sapiens)" unit_label=µg/mL value=12.5
substance="PRT1114 (PSKECSLNVTCLDGSPCEGGSPAANCSCLEGLAGQRCQ; listed as Homo sapiens)" unit_label=µg/mL value=25
substance="PRT1144 (NANDCLSNPCLHGRCTELINEYPCSCDADGTSTQCK; listed as Homo sapiens)" unit_label=µg/mL value=50
substance="PRT1089 (ANPCCSHPCQNRGVCMSVGFDQYKCDCTRTGFYGENCS; listed as Homo sapiens)" unit_label=µg/mL value=12.5
substance="PRT1159 (TTDDQENECQHEAVCKDEINRPRCSCSLSYIGRLCV; listed as Homo sapiens)" unit_label=µg/mL value=12.5
substance="PRT1083 (GTNVCAVANGGCQQLCLYRGRGQRACACAHGMLAEDGASCR; listed as Homo sapiens)" unit_label=µg/mL value=50
substance="PRT1160 (DTEDCKSASCKNGTTSTHLRGYFFRKCVPGFKGTQCE; listed as Homo sapiens)" unit_label=µg/mL value=12.5
substance="PRT1173 (KCIPHPGCVHGICNEPWQCLCETNWGGQLCD; listed as Homo sapiens)" unit_label=µg/mL value=12.5
substance="PRT1130 (DDCSSHCDLAHGCCAPDGSCRCDPGWEGLHCE; listed as Homo sapiens)" unit_label=µg/mL value=50
substance="PRT1175 (AEHACLSDPCHNRGSCKETSLGFECECSPGWTGPTCS; listed as Homo sapiens)" unit_label=µg/mL value=12.5
substance="PRT1063 (ELSPCRINNGGCQDLCLLTHQGHVNCSCRGGRILQDDLTCR; listed as Homo sapiens)" unit_label=µg/mL value=12.5
substance="PRT1170 (RNSSCLPNPCHNGGTCVVNGESFTCVCKEGWEGPICA; listed as Homo sapiens)" unit_label=µg/mL value=100
substance="PRT1071 (ELDQCWEHCRNGGTCAASPSGMPTCRCPTGFTGPKCT; listed as Homo sapiens)" unit_label=µg/mL value=50
substance="PRT1168 (NINDCSQNPCHNGGTCRDLVNDFYCDCKNGWKGKTCH; listed as Homo sapiens)" unit_label=µg/mL value=12.5
